- Test system: Plasmodium falciparum
- Test Method Notes: Antimalarial activity against ring stage Plasmodium falciparum 3D7 infected with human red blood cells incubated for 48 hrs by SYBR Green method
- Type: functional, organism-based
- Condition: 3D7, 48 h
Measured Metric: IC50 (nM)

Observe how each entry below is paired with its result.
>>> endpoint_value("CCN(CC)CCCNc1c2ccc(Cl)cc2nc2c3cc(Cl)ccc3n(CCN3CCCC3)c12")
392
>>> endpoint_value("CCN(CC)CCNc1c2ccc(Cl)cc2nc2c3cc(Cl)ccc3n(CCN3CCOCC3)c12")
513
>>> endpoint_value("Clc1ccc2c(NCCN3CCCC3)c3c(nc2c1)c1ccccc1n3CCN1CCCC1")
468

a. CCN(CC)CCCNc1c2ccc(Cl)cc2nc2c3cc(Cl)ccc3n(CCN3CCOCC3)c12
b. CCN(CC)CCNc1c2ccc(Cl)cc2nc2c3ccccc3n(CCN3CCCC3)c12
Q: Field: entry with larger IC50 (options a / b ). To answer, give the label that identifies your chosen option.
Ans: b
(b: 656 nM, a: 199 nM)

* * *

- Test Method Notes: Inhibition of beta-hematin formation after 5 to 6 hrs by pyridine-ferrichrome detergent-mediated assay
- Assay type: physicochemical
Measured Metric: IC50 (µM)

Here's what some known entries look like.
>>> endpoint_value("Clc1ccc2c(NCCN3CCCC3)c3c(nc2c1)c1cc(Cl)ccc1n3CCN1CCCC1")
23.4
>>> endpoint_value("CCN(CC)CCNc1c2ccc(Cl)cc2nc2c3cc(Cl)ccc3n(CCN3CCCC3)c12")
24.8
>>> endpoint_value("CCN(CC)CCCC(C)Nc1c2ccc(Cl)cc2nc2c3cc(Cl)ccc3n(CCN3CCCC3)c12 (stereo unspecified)")
10.8
>>> endpoint_value("CCN(CC)CCCC(C)Nc1ccnc2cc(Cl)ccc12 (stereo unspecified)")
28.2
>>> endpoint_value("Clc1ccc2c(NCCCN3CCOCC3)c3c(nc2c1)c1ccccc1n3CCN1CCCC1")
32.9

P. CCN(CC)CCCNc1c2ccc(Cl)cc2nc2c3ccccc3n(CCN3CCCC3)c12
Q. CCN(CC)CCNc1c2ccc(Cl)cc2nc2c3ccccc3n(CCN3CCCC3)c12
R. CCN(CC)CCNc1c2ccc(Cl)cc2nc2c3cc(Cl)ccc3n(CCN3CCOCC3)c12
Q: // sort entries: IC50, high to low Give the order by naming the labels one after another as requested.
Ans: Q, P, R

* * *

- Test Method Notes: n-octanol-phosphate buffer partition coefficient, log D in CH3CN-MeOH-phosphate buffer at pH 5.2 by HPLC-UV analysis
- Assay type: physicochemical
Measured Metric: logD

>>> endpoint_value("Clc1ccc2c(NCCN3CCCC3)c3c(nc2c1)c1ccccc1n3CCN1CCCC1")
0.34
>>> endpoint_value("Clc1ccc2c(NCCCN3CCOCC3)c3c(nc2c1)c1cc(Cl)ccc1n3CCN1CCCC1")
1.5
>>> endpoint_value("CCN(CC)CCNc1c2ccc(Cl)cc2nc2c3cc(Cl)ccc3n(CCN3CCCC3)c12")
1

1. CCN(CC)CCCNc1c2ccc(Cl)cc2nc2c3ccccc3n(CCN3CCOCC3)c12
2. CCN(CC)CCCC(C)Nc1c2ccc(Cl)cc2nc2c3cc(Cl)ccc3n(CCN3CCCC3)c12 (stereo not drawn)
3. CCN(CC)CCNc1c2ccc(Cl)cc2nc2c3cc(Cl)ccc3n(CCN3CCOCC3)c12
4. CCN(CC)CCCNc1c2ccc(Cl)cc2nc2c3ccccc3n(CCN3CCCC3)c12
5. Clc1ccc2c(NCCCN3CCCCC3)c3c(nc2c1)c1ccccc1n3CCN1CCCC1
Q: # desc sort on logD across 5 compounds Returns: the labels arranged in the requested order.
Ans: 3, 1, 2, 5, 4

Hello, the source for this data is ChEMBL document CHEMBL3400065, in case you need it.
